Assay: Clearance in CD-1 mouse at 2 mg/kg, iv
Type: ADME, organism-based
Conditions: in vivo
PROPERTY MEASURED: clearance (mL/min/kg)
One number for each entry, in mL/min/kg.

For record CCc1cc(Nc2ncc(Br)c(Nc3ccc4nccnc4c3P(C)(C)=O)n2)c(OC)cc1N1CCC(N2CCN(CCS(C)(=O)=O)CC2)CC1 the listed clearance is 2.4

From: ChEMBL document CHEMBL5113388
